- assay: yeast display, Sf9 membrane polyspecificity reagent, FACS + sequencing; frameworks hold sequencing errors
endpointName: polyreactivity (PSR sort gate)

- QVQLVESGGGLVQAGGSLRLSCAASGLTFDYYAMGWYRQAPGKERELVAAIDWSGGSTYYADSVKGRFTISRDNAKNTVYLQMNSLKPEDTAVYYCATESDDSGMDYWGQGTQVTVSS: low polyreactivity
- QVQLQESGGGLVQAGGSLRLSCAATGTIFTDRFMGWYRQAPGKERELVAGISPGTSTNYADSVKGRFTISRDNAKNTVYLQMNSLKPEDTAVYYCAADWSTGNTLPYWGQGTQVTVSS: high polyreactivity
- QVQLVESGGGLVQAGGSLRLSCAASGRIFVVYAMGWYRQAPGKERELVAAIRSGGSTNYADSVKGRFTISRDNAKNTVYLQMNSLKPEDTAVYYCADCKWHSAYDYWGQGTQVTVSS: high polyreactivity
- QVQHVESGGGLVQAGGSLRLSCAASARIFYWYVMGWSRQAPGKERELVASISRSGGSTYYADSVKGRFTISRDNAKNTVYVQMNSLKPEDTAVYYCNAGSVYTVSLPGHPYDYWGQGTQVTVSS: low polyreactivity
- QGQLEESGGGLVQAGGSLRLSCPASGYILGGNAMGWYRQAPGKERELVARIRVSSGSTYADSVKGRFTISRDNAKNTVYLQMNSLKPEDTAVYYCAASISSRYRYTAYDYWGQGTQVTVSS: high polyreactivity

---

- assay: yeast display, Sf9 membrane polyspecificity reagent, FACS + sequencing; frameworks hold sequencing errors
endpointName: polyreactivity (PSR sort gate)

- QVQLVESGGGLVQAGGSLRLSCAASGRIIRVNAMGWYRQAPGKERELVAAISGRGGSTYYADSVKGRFTISRDNAKITVYLQMNSLKPEDTAVYYCAKKSYSYGYNSYDYWGQGTQVTVSS: high polyreactivity
- QVQLVESGGGLVQAGGSLRLICAASGRTFCAYAMGWYRQAPGKERELVAAITTSGGSTNYADSVKGRFTISRDTAKYTVYLEMKSLKPEETAVYYCNADPTYHVVNGVGFWGQGTQVTVSS: low polyreactivity
- QVQLVESGGGLVQAGGSLRLSCAASGRTFEGNALGWYRQAPGKERELVAAITSGGRTNYADSVKGRFTISRDNAKNTVYLQMNSLKPEDTAVYYCAVETRDRSTYFPGQAYDYWGQGTQVTVSS: low polyreactivity
- QVQLVESGGGLVQAGGSLRLSCAASGFIFPDYAMGWSRQAPGKERELVAAISKRGGSTYYADSVKGRFTISRDNAKNTVYLQMNSLKPEDTAVYYCAAVTSVNPSVFNGNYWGQGTHVTVSS: low polyreactivity
- QVQLVESGGGLVQAGGSLRLSCAASGLTFNHYAMGWYRQAPGKERELVAAISSGSSTDYADSVKGRFTISRDNAKTTVYLQMHSLKPEDTAVYYCAVETPSTWFWGWGYDYDYWGQGTQVTVSS: high polyreactivity

---

- assay: yeast display, Sf9 membrane polyspecificity reagent, FACS + sequencing; frameworks hold sequencing errors
endpointName: polyreactivity (PSR sort gate)

- QVQLVESGGGLVHAGGSLRLSCAASGFTFGQYAMGWYRQAPGKERELVAAIRSGGSTNYADSVKGRFTISRDNAKNTVYLQMNSLKPEDTAVYYCAAGYRRGWVTMGYWGQGTQVTVSS: high polyreactivity
- QVQLVESGGGLVQAGGSLRLSCAASGSIFSGYAMGWYRQAPGKERELVAAINSNGGRTYYADSVKGRFTISRDNAKNTVYLQMNSLKPEDTAVYYCNAAKRGWYYDYYYWGQGTQVTVSS: high polyreactivity
- QVQLVESGGGLVQAGGSLRLSCAASGSTFGRNAMGWYRQAPGKERELVAAINWSDGSTHYADSVKGRFTISRDNAKNTVYLQMNSLKPEDTAVYYCAADAWSWPVDYNYWGQGTQVTVSS: low polyreactivity
- QVQLVESGGGLVQAGGSLRLSCAASGYIVLVYAMGWYRQAPGKERELFASITRGTRTYYADSVKGRFTISRDNAKNTVYLQMNSLKPEDTAVYYCAAEHSGYPVAFYITGYGYDYWGQGTQVTVSS: low polyreactivity
- QVQLVESGGGLVQAGGSLRLSCAASGRIFTVNAMGWYRQAPGKESELVASIRYRGSSTYYADSVKGRFTISRDNAKNTVYLQMNSLKPEDTAVYYCAAVVRQYRPPGLYDYWGQGTQVTVSS: high polyreactivity

---

- assay: yeast display, Sf9 membrane polyspecificity reagent, FACS + sequencing; frameworks hold sequencing errors
endpointName: polyreactivity (PSR sort gate)

* QVQLEESWGGLVQAGGSHRLICAASGSTIGYYAMGWYRQAPWKEREFVASITWGGASTDYADSVKGRFTISRDNAKNSVYLQMNSMKPEDTAVYYCAKDNWDNPRPTSEMDYWGQGTQVTVSS | low polyreactivity
* QVQLVESGGGLVQAGGSLRLSCAASGRTFGYYAMGWYRQAPGKERELVAAISRSGGSTYYADSVKGRFTISGDNAKNTVYLQMNSLKPEDTAVYYCAVKGYVKSDYWGQGTQVTVSS | high polyreactivity
* QVQLVESGGGLVQAGGSLRLSCAASGFIFYYNAMGWYRQAPGKERELVAAISTDGGSTYYADSVKGRFTISRDNAKNTVYLQMNSLKPEDTAVYYCAANRYKRYDYWGQGTQVTVSS | low polyreactivity
* QVQLVESGGGLVQAGGSLRLSCAASGITFYFNAMGWYRQAPGKERELVAAISFSGGGTYYADSVKGRFTISRDNAKNTVYLQMTSLKPEDTAVYYCNADYGRGTLRSIYDYWGQGTQVTVSS | low polyreactivity
* QVQLVESGRGLVQAGGSLRLSCAASGRIFFYYAMGWYREAPGKERELVATISYSGGGTYYADSVKGRFTISRDNAKNTVYLQMNSLKPEDTAVYYCNARWGTPYYIQDFDYWGQGTQVTVSS | low polyreactivity
* QVQLVESGVGLVQAGGSLRLSCAASGRTFPYNAMGWYRQAPGKERELVAVISSSGGSTYYADSVKGRFTISRDNAKNTVYLQMNSLKPEDTAVYYCNTRPYFYRRPGYRYSGYDYWGLGTQVTVSS | high polyreactivity
* QVQLVESGGGLVQAGGSLRLSCAASGNTFNAFNAMGWYRQAPGKERELVAAISRRGGSTYYADSVKGRFTISRDNAKNTVYLQMNSLKPEDTAVYYGAAYYSRSKYDYWGQGTQVTVSS | high polyreactivity
* QVQLVESGGGLVQAGGSLRLSCAASGLTFKYYAMGWYRQAPGKERELVAAITATGGLTYYADSEKGRFTISRDNAKKTVYLQMNSLKPEDTAVYYCNARQHQTYYFYKHDYWGQGTQVTVSS | high polyreactivity
* QVQLVESGGGLVQAGGSLRLSCAPSGRIILRYTMGRYRQARGKERQLVAAISARTTGTYYADSVKGRFTISRDNAKNTFYLQLNSLKPEDTAVYYCAAKCKLSRVLYSWGQGTQVTVSS | low polyreactivity
* QVQLVESGGGLVQAGGSLRLSCAASGGIFAYYAMGWYRQAPGKERELVAAITSRGGRTYYADSVKGRFTISRDNAKNTVYLQMNSLKPEDTAVYYCAAEYINSNYQWYYYWGQGTQVTVSS | high polyreactivity
* QVQLVESGGGLVQAGGSLRLSCAASGRIFLIYAMGWYRQAPGKERELVAAISWSGGSTYYADSVKGRFTISRDNAKNTVYLQMNSLKPEDTAVYYCNADDVNYGYYSWYDYWGQGTQVTVSS | low polyreactivity
* QVQLVESGGGLVQAGGSLRLSCAATGITFTRYAMGWYRQAPGKEREFVAAIRRSGGNTYYADSVKGRFTISRDNAKNTVYILMNSLKPEDTAVYYCAASFRKTSPTRLVDYWGQGTQVTVSS | low polyreactivity
* QVQLVESGGGLVQAGGSLRLSCAASGSIFYRNAMGWYRQAPGKERELVAAISWSGASTYYADSVKGRFTISRDNAKNTVFLQLNSLKPEDTAVYYCATDDFWNVKFYAYYPEFDYWGQGTQVTVSS | low polyreactivity
* QVQLVESGGGLVQAGGSLRLTCAASGRIFYQYALGWYRQAPGKERELVSSITTSGGNTYYADSVKVRFTISRDNAKNTVYLQMNSLKPEDTAVYYCASRFNWRQWLYEYWGQGTQVSVSS | low polyreactivity
* QVQLVESGGGLVQAGGSLRLSCAASGRIFSYYTMGWYRQAPGTERELVAAITWGGGSTSYADSVKGRFTISRDNAKNTVYLQMNSLKPEDTAVYYCAESPGANRMDYWGQGTQVTVSS | low polyreactivity
* QVQLVESGGGLVQAGGSLRLSCAASGSTFPPNAMGRYRQAPGKERELVAAISFSSGRTYYADSVKGRFTFSRDNAKNTVYLQMNSLKPEDTAVYYCAADHGYLGQGTQVTVSS | low polyreactivity
* QVQLVESGGGLVQAGGSLRLSCAASGRIFYYYAMGWYRQAPGKERELVAAITRGGGTYYADSVKGRFTISRDNAKNTVYLQMNSLKPEDTAVYYCAKRGPPESHHPYRYRFDYWGQGTQVTVSS | low polyreactivity
* QVQLVESGGGLVQAGGSLRLSCAASGRIYPGYTMGWYRQAPGKERELVAGISRSGGRTYYADSVKGRFTISRDNAKNTVYLQMNSLKPEDTAVYYCAADGYPGRRYTGMDYWGQGTQVTVSS | high polyreactivity
* QVQLVESGGGLVQAGGSLRLSCAASGRIFKYYAMGWYRQAPGKNRELVATISVSGANTYYADSVKGRFTISRDNAKNPVYLQMNSLKREDTAVYFCAAGYAGVSHITRTSRKSHYGYWGQGTQVTVSS | high polyreactivity
* QVQLVESGGGLVQAGGSLRLSCAASGITYTDYDLGCYRQAPGKERELVAAISNGGGSTYYADSVKGRFTISRDNAKNTVYLQMNSLKPEDTGVYYWAAERVPSWWVEWGVAQWDDYWGQGTQVTVSS | low polyreactivity
* QVQHVESGGGLVQEGGSLRLSCAASGRIFRTNAMVWYRQAPGKERELVAAITRDGTTNYADSVKGRFTISRDNAKNTVYLQMNSLIPEDTAVYYCNARYRRSPIKFTYVRYVYEYDYWGQGTQVTVSS | low polyreactivity
